Origin of values: PubChem BioAssay (NCATS)

# Test system: PA-1
# test name: Primary qHTS to identify gynecologic anti-cancer compounds using libraries of approved drugs and bioactive compounds (AID 1345084); also: nearly all actives have a fitted effect of over 55% in size
# test parameters: Gynecologic cancer cell panel viability, ATPlite luminescence, 48 h; series mostly up to 57.5 µM
Results filed as inconclusive are left out. Calls of active or inactive are those of the source. Calls follow the shape of the dose curve; as a rule, active = well fitted cell-killing curve with a large enough effect; inconclusive = small, poorly fitted or top-dose-only effect, or effect the other way; inactive = flat fitted curve, though single readings scatter. Where a SMILES comes first, the peptide text is derived from it. Bridges are numbered along the chain shown (N, C = ends). [ ]: non-standard residue; d: D form. dPhe(4-Cl) = N[C@H](Cc1ccc(Cl)cc1)C(=O)O; d2Nal = N[C@H](Cc1ccc2ccccc2c1)C(=O)O; NMeY = CN[CH](Cc1ccc(O)cc1)C(=O)O; dCit = NC(=O)NCCC[C@@H](N)C(=O)O; d3Pal = N[C@H](Cc1cccnc1)C(=O)O
Labels: active, inactive

{"compound": "O=C(Nc1ccc(S(=O)(=O)Nc2nccs2)cc1)C(c1ccccc1)c1ccccc1", "assigned category": "inactive"}
{"compound": "C(#Cc1nc2ncccc2nc1OCCN1CCCC1)c1ccccc1", "assigned category": "active"}
{"compound": "OC[C@H]1O[C@@H](O[C@H]2[C@H](OCc3ccccc3)O[C@H](CO[C@@H]3OC[C@@H](O)[C@H](O)[C@H]3O)[C@@H](O)[C@@H]2O)[C@H](O)[C@@H](O)[C@@H]1O", "assigned category": "inactive"}
{"compound": "Cc1cccc(C)c1OCc1cc(C(=O)N2CCC(c3ccncc3)CC2)no1", "assigned category": "inactive"}
{"compound": "CC1(C)CCCC2(C)C1CC=C1C(=O)OC(O)C12O (centres undefined)", "assigned category": "inactive"}
{"compound": "COc1cc2occc2c(O[C@@H]2O[C@H](CO)[C@@H](O)[C@H](O)[C@H]2O)c1CCC(=O)O", "assigned category": "inactive"}
{"compound": "Cc1ccc(-c2ccc3ncc4c(c3n2)n(C2CCN(C(=O)[C@H](C)O)CC2)c(=O)n4C)cn1", "assigned category": "active"}
{"compound": "COc1ccc(Cl)c(Nc2nc3ccccc3nc2NS(=O)(=O)c2cccc(NC(=O)C(C)(C)N)c2)c1", "assigned category": "inactive"}
{"compound": "CC(C)CNCc1ccc(-c2ccccc2S(=O)(=O)N2CCCC2)cc1", "assigned category": "inactive"}
{"compound": "CC(C)=CCC/C(C)=C/Cc1ccc(O)c(C2OC(=O)c3cc(C(=O)O)cc(O)c32)c1O (centres undefined)", "assigned category": "inactive"}
{"compound": "Cc1cc(C)c2c(N)c(C(=O)NCc3ccc(Cl)cc3)sc2n1", "assigned category": "inactive"}
{"compound": "O=C1NC(=O)C(c2cn(-c3ccccc3)nc2-c2ccc(F)cc2)N1 (centres undefined)", "assigned category": "inactive"}
{"compound": "CC/C=C\\CC1C(=O)C=CC1(CCCCCCCC(=O)O)OC(C)=O (centres undefined)", "assigned category": "inactive"}
{"compound": "Cc1ccc(S(=O)(=O)c2ccc([N+](=O)[O-])o2)cc1", "assigned category": "active"}
{"compound": "Cc1nc2sc(C(=O)NCc3ccncc3)c(N)c2c(C)c1Cl", "assigned category": "inactive"}
{"compound": "COc1ccc(C2COc3cc(O)ccc3C2)c(O)c1 (centres undefined)", "assigned category": "inactive"}
{"compound": "COC(=O)CC(O)C1OC(c2ccccc2)C(O)C1O (centres undefined)", "assigned category": "inactive"}
{"compound": "C=C1[C@H](OC(C)=O)[C@H]2[C@@H](OC(C)=O)[C@](C)(OC(C)=O)C[C@]2(OC(C)=O)C(=O)[C@H](C)/C=C/C(C)(C)C(=O)[C@H](OC(=O)C(C)C)[C@H]1OC(C)=O", "assigned category": "inactive"}
{"compound": "COc1cc(O)cc(C)c1C(=O)O[C@@H]1[C@H](O)[C@@H](CO)O[C@H]1n1ccc(=O)[nH]c1=O", "assigned category": "active"}
{"compound": "CC(C)/C=C1\\NC(=O)C(C(C)C)n2c1nc1c(c2=O)C=CC=CO1 (centres undefined)", "assigned category": "inactive"}
{"compound": "Cc1cc(C(=O)Nc2cccc(C(=O)Nc3cccc(C(F)(F)F)c3)c2)on1", "assigned category": "inactive"}
{"compound": "Oc1ccc2nc(CN3CCC(Cc4ccccc4F)CC3)[nH]c2c1", "assigned category": "inactive"}
{"compound": "CC(=O)N[C@H](Cc1ccc2ccccc2c1)C(=O)N[C@H](Cc1ccc(Cl)cc1)C(=O)N[C@H](Cc1cccnc1)C(=O)N[C@@H](CO)C(=O)N[C@@H](Cc1ccc(O)cc1)C(=O)N[C@H](CCCNC(N)=O)C(=O)N[C@@H](CC(C)C)C(=O)N[C@@H](CCCN=C(N)N)C(=O)N1CCC[C@H]1C(=O)N[C@H](C)C(N)=O (Ac-[d2Nal][dPhe(4-Cl)][d3Pal]SY[dCit]LRP[dA]-NH2)", "assigned category": "inactive"}
{"compound": "O=C(CCc1ccccc1)N1CCC(O)(Cn2cnc3cc(Cl)ccc3c2=O)CC1", "assigned category": "inactive"}
{"compound": "CC1(C)CCCC2(C)C1CC(=O)C13CC(CCC12)C(O)(CO)C3 (centres undefined)", "assigned category": "inactive"}
{"compound": "c1cc(Nc2cc(C3CC3)[nH]n2)nc(Nc2ccc3nc[nH]c3c2)n1", "assigned category": "active"}
{"compound": "Cc1nc2ccc(Oc3ccc(F)cc3)cc2c(=O)n1C[C@H]1CCCN(C(C)C)C1", "assigned category": "inactive"}
{"compound": "CCC(C)C1NC(=O)C2CCCN2C(=O)C(NC(C)=O)C(C)OC(=O)C(Cc2ccc(OC)cc2)N(C)C(=O)C2CCCN2C(=O)C(C(C)C)NC1=O (centres undefined) (Ac-TPIVP[NMeY](Me); ester 1-C; configuration not given here)", "assigned category": "inactive"}
{"compound": "CC(C)[C@@H](CS(=O)(=O)C(C)C)N1C(=O)[C@@](C)(CC(=O)O)C[C@H](c2cccc(Cl)c2)[C@H]1c1ccc(Cl)cc1", "assigned category": "active"}
{"compound": "CCNC(=O)Nc1ncc(-c2cc(-c3c(C)cc(OC)cc3C)nc(-c3cnccn3)n2)s1", "assigned category": "inactive"}
{"compound": "CC1=CC(=O)[C@H]2C(C)(C)CCC[C@]2(C)[C@@]1(O)CO", "assigned category": "inactive"}
{"compound": "NCCCNc1ccc(Nc2nccc(Nc3cc(C4CC4)[nH]n3)n2)cc1", "assigned category": "active"}
{"compound": "COC(=O)CCc1cc2ccoc2c(OC)c1O[C@@H]1O[C@H](CO)[C@@H](O)[C@H](O)[C@H]1O", "assigned category": "inactive"}
{"compound": "CC(=O)NC1=NN(C(C)=O)C(C)(c2ccccc2)S1 (centres undefined)", "assigned category": "active"}
